- SYSTEM: human sRAGE (the soluble extracellular domain of the human receptor for advanced glycation endproducts) (Homo sapiens (Human), UniProt Q15109)
- Sequence (Q15109 23-342): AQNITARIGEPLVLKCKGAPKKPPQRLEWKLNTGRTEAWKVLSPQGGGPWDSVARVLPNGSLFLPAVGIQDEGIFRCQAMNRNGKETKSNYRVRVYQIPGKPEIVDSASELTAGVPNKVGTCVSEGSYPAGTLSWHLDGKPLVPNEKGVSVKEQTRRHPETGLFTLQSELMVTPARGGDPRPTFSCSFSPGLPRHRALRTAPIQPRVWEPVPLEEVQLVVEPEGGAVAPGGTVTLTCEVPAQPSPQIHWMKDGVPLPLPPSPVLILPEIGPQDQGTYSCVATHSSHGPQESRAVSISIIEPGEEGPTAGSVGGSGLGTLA
- MEASUREMENT_PROTOCOL: Microscale thermophoresis binding affinity to recombinant human sRAGE
- TEST_PARAMETERS: 25° C., pH 7.5
PROPERTY_LABEL: Kd (nM)

Worked examples follow.
INPUT: GET /values?readout=Kd&item= CCCCc1nc(-c2ccc(OCCCO)cc2)cn1-c1ccc(Oc2ccc(Cl)cc2)cc1 [Metabolite M7]
OUTPUT: 99.8

INPUT: GET /values?readout=Kd&item= CCCCc1nc(-c2ccc(OCCCN(CC)CC)cc2)cn1-c1ccc(Oc2ccc(Cl)cc2O)cc1 [Metabolite M5]
OUTPUT: 9.7

INPUT: GET /values?readout=Kd&item= CCCCc1nc(-c2ccc(OCCC(=O)O)cc2)cn1-c1ccc(Oc2ccc(Cl)cc2)cc1 [Metabolite M1]
OUTPUT: 219

A. CCCCc1nc(-c2ccc(O)cc2)cn1-c1ccc(Oc2ccc(Cl)cc2)cc1 [Metabolite M3]
B. CCCCc1nc(-c2ccc(OCCCN(CC)CC)cc2)cn1-c1ccc(Oc2ccc(Cl)c(O)c2)cc1 [Metabolite M6]
INPUT: For the two items A and B , which reports the higher Kd value? Kindly give the label for the entry you pick.
OUTPUT: A
